- Target system: T1, HLA-DR DRB1*0101 (human)
- T1 chain 1: not shown
- T1 chain 2: not shown
- Test summary: radiolabeled-peptide inhibition, purified HLA-DR
- Condition set: remark: other sources report otherwise
Quantity kind: IC50 (nM)

{"Binder": "CYGLGMEHLREVRAV [9019.0044]", "IC50 [nM]": 130}
{"Binder": "LQGLPREYVNARHCL [9019.0064]", "IC50 [nM]": 354}
{"Binder": "ITGYLYISAWPDSLP [9019.0050]", "IC50 [nM]": 96}

(1) KIPVAIKVLRENTSP [1622.03]
(2) AYVMAGVGSPYVSRL [9019.0077]
(3) HRDLAARNVLVKSPN [9019.0085]
(4) SQFLRGQECVEECRV [9019.0062]
(5) LREVRAVTSANIQEF [9019.0046]
Query block: In this exercise, place the 5 binders in ascending sequence of their recorded IC50. Give the labels in the order specified.
Result block: 5, 2, 3, 4, 1

Hey, just so you know, these numbers are from patent US20100310640A1.
